System: HeLa Kyoto;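 also: HeLa Kyoto cells synchronized by double thymidine or nocodazole block, proteins quantified by TMT10plex mass spectrometry, three independent biological replicates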
protocol: melting temperature (median over replicates), in situ; higher = more thermally stable
cond: cell cycle stage: G1/S
I'd be grateful if you could share measured melting temperature for these entries.

melting temperature lookup needed for MPRKRKCDLRAVRVGLLLGGGGVYGSRFRFTFPGCRALSPWRVRVQRRRCEMSTMFADTLLIVFISVCTALLAEGITWVLVYRTDKYKRLKAEVEKQSKKLEKKKETITESAGRQQKKKIERQEEKLKNNNRDLSMVRMKSMFAIGFCFTALMGMFNSIFDGRVVAKLPFTPLSYIQGLSHRNLLGDDTTDCSFIFLYILCTMSIRQNIQKILGLAPSRAATKQAGGFLGPPPPSGKFS [TMCO1] , thanks.
53.7 °C

melting temperature lookup needed for MTDAAVSFAKDFLAGGVAAAISKTAVAPIERVKLLLQVQHASKQITADKQYKGIIDCVVRIPKEQGVLSFWRGNLANVIRYFPTQALNFAFKDKYKQIFLGGVDKRTQFWLYFAGNLASGGAAGATSLCFVYPLDFARTRLAADVGKAGAEREFRGLGDCLVKIYKSDGIKGLYQGFNVSVQGIIIYRAAYFGIYDTAKGMLPDPKNTHIVISWMIAQTVTAVAGLTSYPFDTVRRRMMMQSGRKGTDIMYTGTLDCWRKIARDEGGKAFFKGAWSNVLRGMGGAFVLVLYDEIKKYT [SLC25A5] , thanks.
56.9 °C

melting temperature lookup needed for MNTVLSRANSLFAFSLSVMAALTFGCFITTAFKDRSVPVRLHVSRIMLKNVEDFTGPRERSDLGFITFDITADLENIFDWNVKQLFLYLSAEYSTKNNALNQVVLWDKIVLRGDNPKLLLKDMKTKYFFFDDGNGLKGNRNVTLTLSWNVVPNAGILPLVTGSGHVSVPFPDTYEITKSY [SPCS3] , thanks.
53.5 °C

melting temperature lookup needed for MAEAVLRVARRQLSQRGGSGAPILLRQMFEPVSCTFTYLLGDRESREAVLIDPVLETAPRDAQLIKELGLRLLYAVNTHCHADHITGSGLLRSLLPGCQSVISRLSGAQADLHIEDGDSIRFGRFALETRASPGHTPGCVTFVLNDHSMAFTGDALLIRGCGRTDFQQGCAKTLYHSVHEKIFTLPGDCLIYPAHDYHGFTVSTVEEERTLNPRLTLSCEEFVKIMGNLNLPKPQQIDFAVPANMRCGVQTPTA [ETHE1] , thanks.
56.6 °C

melting temperature lookup needed for MSSARFDSSDRSAWYMGPVSRQEAQTRLQGQRHGMFLVRDSSTCPGDYVLSVSENSRVSHYIINSLPNRRFKIGDQEFDHLPALLEFYKIHYLDTTTLIEPAPRYPSPPMGSVSAPNLPTAEDNLEYVRTLYDFPGNDAEDLPFKKGEILVIIEKPEEQWWSARNKDGRVGMIPVPYVEKLVRSSPHGKHGNRNSNSYGIPEPAHAYAQPQTTTPLPAVSGSPGAAITPLPSTQNGPVFAKAIQKRVPCAYDKTALALEVGDIVKVTRMNINGQWEGEVNGRKGLFPFTHVKIFDPQNPDENE [CRKL] , thanks.
53 °C

melting temperature lookup needed for MALRACGLIIFRRCLIPKVDNNAIEFLLLQASDGIHHWTPPKGHVEPGEDDLETALRETQEEAGIEAGQLTIIEGFKRELNYVARNKPKTVIYWLAEVKDYDVEIRLSHEHQAYRWLGLEEACQLAQFKEMKAALQEGHQFLCSIEA [NUDT2] , thanks.
51.7 °C
